test system: 616215-338-R-J1-PDC tumor spheroids, viability; test: Anticancer human tumor 616215-338-R-J1-PDC patient-derived colon adenocarcinoma cell line growth inhibition [GQUAD]; details: second compound 10 µM; first compound 3.16 µM; hits give low values; spheroids with HUVEC and MSC;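 note: spheroids exposed to agents for 7 days before readout; percent viability relative to DMSO vehicle control wells taken as 100%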
result type: viability, T/C (%)
Your answer is read as %, so omit the unit and give the number.

Worked cases, viability, T/C given:
CCCS(=O)(=O)Nc1ccc(F)c(C(=O)c2c[nH]c3ncc(-c4ccc(Cl)cc4)cc23)c1F + Cc1cnc(CNC(=O)c2c(=O)c3ccc(N4CCCN(C)CC4)nc3n3c2sc2ccccc23)cn1 = 23.9
Nc1ccn(C2OC(CO)C(O)C2(F)F)c(=O)n1 (stereo not given) + CN(C)c1ccc(Nc2c3ccc(NC(=O)CCN4CCCC4)cc3nc3cc(NC(=O)CCN4CCCC4)ccc23)cc1 = 8.89
O=C(c1cc(Cc2n[nH]c(=O)c3ccccc23)ccc1F)N1CCN(C(=O)C2CC2)CC1 + CN(C)c1ccc(Nc2c3ccc(NC(=O)CCN4CCCC4)cc3nc3cc(NC(=O)CCN4CCCC4)ccc23)cc1 = 67

Exam item: Please report the measured viability, T/C for COc1ccc([C@@H](O)c2cc(-c3ncnc4cc(N5CCOCC5)ccc34)c(F)cc2Cl)nn1 + CN(C)c1ccc(Nc2c3ccc(NC(=O)CCN4CCCC4)cc3nc3cc(NC(=O)CCN4CCCC4)ccc23)cc1
Marked response: 57.6

Exam item: Please report the measured viability, T/C for O=C(NO)c1cnc(N2CCN(S(=O)(=O)c3ccc4ccccc4c3)CC2)nc1 + Cc1[nH]c2ccc(F)cc2c1-c1nc2c3cccnc3c3ncccc3c2[nH]1
Marked response: 0.15

Exam item: Please report the measured viability, T/C for COc1cc(C2c3cc4c(cc3C(OC3OC5COC(C)OC5C(O)C3O)C3COC(=O)C23)OCO4)cc(OC)c1O (stereo not given) + Cc1cnc(CNC(=O)c2c(=O)c3ccc(N4CCCN(C)CC4)nc3n3c2sc2ccccc23)cn1
Marked response: 22.3

Exam item: Please report the measured viability, T/C for CC(=O)O[C@H]1C(=O)[C@@]2(C)[C@H]([C@H](OC(=O)c3ccccc3)[C@]3(O)C[C@H](OC(=O)[C@H](O)[C@@H](NC(=O)c4ccccc4)c4ccccc4)C(C)=C1C3(C)C)[C@]1(OC(C)=O)CO[C@@H]1C[C@@H]2O + Cc1cnc(CNC(=O)c2c(=O)c3ccc(N4CCCN(C)CC4)nc3n3c2sc2ccccc23)cn1
Marked response: 24.4

Exam item: Please report the measured viability, T/C for CC(C)(O)C1CCC(Nc2ccc3ncc(-c4cccc(C(F)(F)F)c4)n3n2)CC1 (stereo not given) + CN(C)c1ccc(Nc2c3ccc(NC(=O)CCN4CCCC4)cc3nc3cc(NC(=O)CCN4CCCC4)ccc23)cc1
Marked response: 0.42

Exam item: Please report the measured viability, T/C for Nc1ccn(C2OC(CO)C(O)C2(F)F)c(=O)n1 (stereo not given) + Cc1cnc(CNC(=O)c2c(=O)c3ccc(N4CCCN(C)CC4)nc3n3c2sc2ccccc23)cn1
Marked response: 20

Exam item: Please report the measured viability, T/C for C=CCn1c(=O)c2cnc(Nc3ccc(N4CCN(C)CC4)cc3)nc2n1-c1cccc(C(C)(C)O)n1 + Cc1[nH]c2ccc(F)cc2c1-c1nc2c3cccnc3c3ncccc3c2[nH]1
Marked response: 11.2
